# target_under_test: p53 Y220C mutant protein (amino acid residues 94-293) (Homo sapiens, UniProt P04637, Y220C)
# Construct: p53 Y220C mutant protein (amino acid residues 94-293)
# protocol_details: Surface Plasmon Resonance (SPR) assay, Kd_kinetic
# Type: binding
# measurement_parameters: SPR; p53 Y220C; read-out: SPR P53 Y220C KD kinetic
endpoint_name: Kd

Study these solved cases before continuing.
>  <compound_structure>
COc1cc(P(C)(C)=O)ccc1NCC#Cc1cn2c(N[C@@H]3CCN(C)C[C@@H]3F)cccc2c1SC(F)F

>  <measurement>
< 0.01 µM

$$$$
>  <compound_structure>
CNC(=O)c1ccc(OC)c(NCC#Cc2nc3c(N[C@@H]4C[C@@H]5CC[C@H]4N5C)cccn3c2SC(F)(F)F)c1

>  <measurement>
< 0.01 µM

$$$$
>  <compound_structure>
CN1CC[C@@H](Nc2cccn3c(SC(F)(F)F)c(C#CCNc4ccc(P(C)(C)=O)c5ccoc45)cc23)[C@@H](F)C1

>  <measurement>
< 0.01 µM

$$$$
>  <compound_structure>
CN1CC[C@@H](Nc2cccn3c(SC(F)(F)F)c(C#CCNc4ccc(P(C)(C)=O)c5ocnc45)cc23)[C@@H](F)C1

>  <measurement>
< 0.01 µM

$$$$
>  <compound_structure>
[2H]C([2H])([2H])Oc1cc(S(C)(=O)=O)ccc1NCC#Cc1nc2c(N[C@@H]3CCN(C)C[C@@H]3C)cccn2c1SC(F)(F)F

>  <measurement>
< 0.01 µM

$$$$

Could you now consider this next compound?
What value of Kd has been reported for the following compound? CN1CC[C@@H](Nc2cccn3c(SC(F)(F)F)c(C#CCNc4ccc(C(=O)NC[C@@H]5COCCO5)cc4)cc23)[C@@H](F)C1
< 0.01 µM

Cited source for all entries: patent US20260374766A1
